Entry source: PubChem BioAssay AID1845201

System: COR L88 complex tumor spheroid viability
Experiment: Anticancer human tumor COR L88 cell line growth inhibition;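 further: compound exposure lasted 7 days before viability readout; percent of DMSO vehicle-treated spheroids = 100%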
Settings: second compound 0.000949 µM; first compound 0.0949 µM; active compounds read low
Some compounds, each annotated with its measured viability, T/C.
readout_name: viability, T/C

# compound, readout_name, obs_value
data = [
    ("CNCc1ccc(-c2cc(-c3nc(-c4ccc(S(=O)(=O)C(C)C)cc4)cnc3N)on2)cc1 + COc1cc2c(cc1O)CCNC21CSC2c3c(OC(C)=O)c(C)c4c(c3C(COC1=O)N1C(O)C3Cc5cc(C)c(OC)c(O)c5C(C21)N3C)OCO4", "viability, T/C", "31.6%"),
    ("Cc1sc2c(c1C)C(c1ccc(Cl)cc1)=NC(CC(=O)Nc1ccc(O)cc1)c1nnc(C)n1-2 (centres undefined) + COc1cc2c(cc1O)CCNC21CSC2c3c(OC(C)=O)c(C)c4c(c3C(COC1=O)N1C(O)C3Cc5cc(C)c(OC)c(O)c5C(C21)N3C)OCO4", "viability, T/C", "54%"),
    ("Cn1ncnc1[C@H]1c2n[nH]c(=O)c3cc(F)cc(c23)N[C@@H]1c1ccc(F)cc1 + COc1cc2c(cc1O)CCNC21CSC2c3c(OC(C)=O)c(C)c4c(c3C(COC1=O)N1C(O)C3Cc5cc(C)c(OC)c(O)c5C(C21)N3C)OCO4", "viability, T/C", "44.2%"),
    ("O=C(c1cc(Cc2n[nH]c(=O)c3ccccc23)ccc1F)N1CCN(C(=O)C2CC2)CC1 + COc1cc2c(cc1O)CCNC21CSC2c3c(OC(C)=O)c(C)c4c(c3C(COC1=O)N1C(O)C3Cc5cc(C)c(OC)c(O)c5C(C21)N3C)OCO4", "viability, T/C", "57.2%"),
]
